- target of assay: UniProt:Q93ZN9
- Sequence (Q93ZN9 whole entry): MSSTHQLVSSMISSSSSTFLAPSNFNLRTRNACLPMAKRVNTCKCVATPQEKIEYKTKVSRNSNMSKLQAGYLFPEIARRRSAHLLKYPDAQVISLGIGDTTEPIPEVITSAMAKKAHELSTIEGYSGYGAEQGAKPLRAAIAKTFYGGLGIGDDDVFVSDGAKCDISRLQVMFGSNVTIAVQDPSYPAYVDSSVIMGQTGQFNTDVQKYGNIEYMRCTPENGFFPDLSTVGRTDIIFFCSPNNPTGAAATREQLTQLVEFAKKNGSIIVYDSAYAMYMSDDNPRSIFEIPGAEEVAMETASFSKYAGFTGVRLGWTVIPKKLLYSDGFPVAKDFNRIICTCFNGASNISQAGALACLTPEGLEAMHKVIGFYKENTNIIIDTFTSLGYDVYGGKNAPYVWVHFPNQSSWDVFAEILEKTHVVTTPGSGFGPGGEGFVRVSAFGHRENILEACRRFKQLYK
- assay comment: Inhibition of Arabidopsis thaliana LL-DAP-AT expressed in Escherichia coli at 10 uM by aminobenzaldehyde-based assay
I'd be grateful if you could share measured inhibition for these entries.
Give just the number in %; leave the unit off.

Please fill in: inhibition reported for NNC(=O)c1cc2ccccc2cc1NS(=O)(=O)c1ccccc1 = 33

inhibition in this record for Cc1ccsc1/C=C1\SC(=S)N(C(C)c2ccccc2)C1=O (stereo not given) : 13

The measured inhibition associated with Cc1ccc(N2C(=O)/C(=C\c3cc4ccccc4n3CC(=O)O)C(=O)N(C)C2=O)cc1 reads 17

Field inhibition (entry Cc1c(C(=O)NC(=S)Nc2ccc3oc(-c4ccccc4Cl)nc3c2)oc2ccccc12 ) reads 19

Kindly note the recorded inhibition for CC(=O)/N=C1\NC(=O)/C(=C/c2ccc(-c3ccc([N+](=O)[O-])cc3)o2)S1 , which is 52
